- Tested on: HT29 colon
- Measurement protocol: NCI-60 one-dose screen, 48 h (100 = growth as untreated, 0 = no growth, -100 = all killed)
- Settings: 10 µM unless noted
Compounds without any hit were thinned out: in the full panel of roughly 83,000, 20% have a hit. Activity calls are given as the source filed them. The calls were made as follows: active = growth percent below 10; inactive = the rest.
I'd appreciate it if you could supply growth values for the items below.

### Prompt Find the measured growth: item N#Cc1c(-c2ccccn2)[nH]c(=S)[nH]c1=O , target or system HT29 colon.
### Response 96% (inactive)

### Prompt Find the measured growth: item O=C(NC(Cc1nnc2n(Cc3ccccc3)c(=O)c3c4c(sc3n12)CCCC4)c1ccc(Cl)cc1)c1ccccc1 (centres undefined) , target or system HT29 colon.
### Response 89.1% (inactive)

### Prompt Find the measured growth: item Cc1cc(NCc2cc(Nc3ccnc4cc(Cl)ccc34)ccc2F)nc(N2CCN(c3ccccc3)CC2)n1 , target or system HT29 colon.
### Response 13.6% (inactive)

### Prompt Find the measured growth: item Fc1c[c-]c(-c2ccccn2)c(F)c1.[CH3-].[Pt+2].c1ccc(P(C[PH+](c2ccccc2)c2ccccc2)c2ccccc2)cc1 , target or system HT29 colon.
### Response 1.16% (active)
